Please provide measured protein stability index for the entries that follow.
B1: HSP90AB1 (parent)
chain: EADKNDKAVKDLVVLLFETALLSS

variants of: B1; experiment: protein stability index of a GFP-peptide fusion (GPS, HEK-293T) (PSI 1-6); higher = more stable; conditions: c terminus: a fixed tail appended;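 further: lentivirally expressed fusions sorted by FACS into six bins by GFP to DsRed ratio, PSI derived from sequencing read proportions per bin multiplied by bin number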
Answer with a bare number; do not write a unit.

Give protein stability index for the following variant: EADKNDKAVKDLVVLLFGTALLSS [E18G] 4.31

Give protein stability index for the following variant: AADKNDKAVKDLVVLLFETALLSS [E1A] 1.45

Give protein stability index for the following variant: EADKNDKAVKDLVVLYFETALLSS [L16Y] 2.27

Give protein stability index for the following variant: EADKNDRAVKDLVVLLFETALLSS [K7R] 2.02

Give protein stability index for the following variant: EADKNDKAVKDLVVLLFTTALLSS [E18T] 2.01

Give protein stability index for the following variant: EADKNKKAVKDLVVLLFETALLSS [D6K] 1.28

Give protein stability index for the following variant: EADKNDKVVKDLVVLLFETALLSS [A8V] 1.63

Give protein stability index for the following variant: EADKNDKAVKDLVVLLFETALTSS [L22T] 2.29

Give protein stability index for the following variant: ETDKNDKAVKDLVVLLFETALLSS [A2T] 2.15

Give protein stability index for the following variant: EARKNDKAVKDLVVLLFETALLSS [D3R] 1.9

Give protein stability index for the following variant: EADKNDKAVKDLVTLLFETALLSS [V14T] 2.12

Origin of the recorded values: the supplement of paper PMC10567573
